The measurements presented in this section are drawn from ChEMBL document CHEMBL5357072.

Tested on: MOLM-13
experimental_details: Antiproliferative activity against human MOLM-13 cells assessed as cell growth inhibition at 10 uM incubated for 48 hrs by CCK8 assay relative to control
Type: functional
applied_conditions: read-out: GI
If the reported inhibition of growth at 10 µM equals or exceeds 50%, assign Criterion met. If not, assign Criterion not met.

A selection of reference data follows.
COc1ccc2c(c1OC)C(=O)O[C@@H]2[C@H]1c2c(c(C3CCOC3)c3c(c2OC)OCO3)CCN1C(=O)OC(C)(C)C (stereo partly drawn) = Criterion not met
COc1ccc2c(c1OC)C(=O)O[C@@H]2[C@H]1c2c(c(CC3CN(C(=O)OCc4ccccc4)C3)c3c(c2OC)OCO3)CCN1C(=O)OC(C)(C)C = Criterion met
COc1ccc2c(c1OC)C(=O)O[C@@H]2[C@H]1c2c(c(CC3CCN(C(=O)OC(C)(C)C)CC3)c3c(c2OC)OCO3)CCN1C(=O)OC(C)(C)C = Criterion met
COc1ccc2c(c1OC)C(=O)O[C@@H]2[C@H]1c2c(c(C3CCN(C(=O)OC(C)(C)C)CC3)c3c(c2OC)OCO3)CCN1C(=O)OC(C)(C)C = Criterion met

Check the entry `COc1ccc2c(c1OC)C(=O)O[C@@H]2[C@H]1c2c(c(CCNC(=O)OC(C)(C)C)c3c(c2OC)OCO3)CCN1C(=O)OC(C)(C)C` : does inhibition of growth at 10 µM equal or exceed 50%?
Criterion not met
